- tested on: MMP-2 (Homo sapiens, UniProt P08253)
- Construct: made in house; host or cells: MMP-2-transfected p2AHT2 cells
- Sequence (P08253 110-660): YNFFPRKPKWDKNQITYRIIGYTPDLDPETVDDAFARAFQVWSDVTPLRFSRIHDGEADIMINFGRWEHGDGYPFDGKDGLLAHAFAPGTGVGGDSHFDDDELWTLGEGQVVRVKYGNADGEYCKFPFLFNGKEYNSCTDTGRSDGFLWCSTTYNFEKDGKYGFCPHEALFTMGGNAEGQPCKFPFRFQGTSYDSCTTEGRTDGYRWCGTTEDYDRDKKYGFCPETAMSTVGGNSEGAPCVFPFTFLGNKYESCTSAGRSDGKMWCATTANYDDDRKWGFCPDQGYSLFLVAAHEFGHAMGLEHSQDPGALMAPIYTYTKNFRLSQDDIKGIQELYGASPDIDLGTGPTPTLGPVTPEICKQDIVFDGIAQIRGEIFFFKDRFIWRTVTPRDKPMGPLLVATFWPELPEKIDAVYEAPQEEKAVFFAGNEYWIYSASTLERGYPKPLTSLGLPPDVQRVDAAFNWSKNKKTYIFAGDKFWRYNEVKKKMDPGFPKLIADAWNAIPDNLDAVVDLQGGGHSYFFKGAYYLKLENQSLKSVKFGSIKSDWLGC
- experimental details: In vitro MMP inhibition, Ki determination (fluorogenic substrate II)
- Assay type: biochemical
- measurement context: value outside parentheses; read-out: MMP-2 Ki
pKi: −log10 of the molar value.
measure: pKi

[
  {
    "molecule": "CCCCOc1ccc(N2CCN(S(=O)(=O)C3(C(=O)NO)CCN(C(N)=O)CC3)CC2)cc1 [Example 253]",
    "pKi": 9.12
  }
]

I. CCCCc1ccc(C2CCN(S(=O)(=O)C3(C(=O)NO)CCN(CC)CC3)CC2)nc1 [Example 396]
II. CCCCOc1ccc(N2CCN(S(=O)(=O)C3(C(=O)NO)CCN(C(=O)c4ccccc4)CC3)CC2)cc1 [Example 255]
III. N#Cc1cccc(-c2cnc(N3CCN(S(=O)(=O)C4(C(=O)NO)CCOCC4)CC3)s2)c1 [Example 384]
Sort entries by pKi from minimum to maximum value. Put the labels in the requested order and list them out.
I, II, III
